Molecular target: FGFR3 (Homo sapiens, UniProt P22607)
Sequence (P22607 23-806): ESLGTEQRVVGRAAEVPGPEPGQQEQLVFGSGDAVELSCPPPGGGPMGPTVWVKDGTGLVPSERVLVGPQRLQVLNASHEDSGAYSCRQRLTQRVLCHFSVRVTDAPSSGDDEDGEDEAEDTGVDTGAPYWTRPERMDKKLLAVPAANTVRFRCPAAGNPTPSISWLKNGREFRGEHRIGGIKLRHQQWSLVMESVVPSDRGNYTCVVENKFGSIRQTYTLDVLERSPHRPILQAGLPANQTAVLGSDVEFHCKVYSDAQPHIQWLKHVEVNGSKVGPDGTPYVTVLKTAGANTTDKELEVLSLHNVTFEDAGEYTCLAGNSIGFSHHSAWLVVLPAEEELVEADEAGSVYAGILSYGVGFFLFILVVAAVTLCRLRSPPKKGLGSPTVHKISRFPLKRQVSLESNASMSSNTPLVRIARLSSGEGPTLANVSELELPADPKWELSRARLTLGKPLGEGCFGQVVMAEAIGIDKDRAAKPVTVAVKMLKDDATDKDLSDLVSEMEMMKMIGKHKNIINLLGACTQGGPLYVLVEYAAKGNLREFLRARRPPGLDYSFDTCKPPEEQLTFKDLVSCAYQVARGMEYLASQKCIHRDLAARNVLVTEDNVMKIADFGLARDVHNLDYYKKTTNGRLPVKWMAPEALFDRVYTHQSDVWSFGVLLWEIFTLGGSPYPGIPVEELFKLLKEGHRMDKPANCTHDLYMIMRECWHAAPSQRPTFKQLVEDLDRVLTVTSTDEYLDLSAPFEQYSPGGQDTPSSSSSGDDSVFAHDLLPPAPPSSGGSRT
Assay: FGFR3 kinase inhibition (IC50)
Assay type: biochemical
Settings: read-out: FGFR3 Inhibition (IC50 class)
pIC50: −log10 of the molar value.
MEASURED_PROPERTY: pIC50

{"COMPOUND": "C=CC(=O)NC1CC1Nc1cc(-c2cccnc2Nc2c(Cl)c(OC)cc(OC)c2Cl)ncn1 (stereo not shown) [Compound 2]", "TEST_VALUE": "6.00 to 7.00"}
{"COMPOUND": "C=CC(=O)Nc1cc(OC2CCN(C)CC2)ccc1Nc1cc(-c2cccnc2Nc2c(Cl)c(OC)cc(OC)c2Cl)ncn1 [Compound 8]", "TEST_VALUE": "≤ 6.00"}
{"COMPOUND": "C=CC(=O)N[C@H]1COC[C@H]1Nc1cc(-c2cccnc2Nc2c(Cl)c(OC)cc(OC)c2Cl)ncn1 [Compound 1]", "TEST_VALUE": "≤ 6.00"}
{"COMPOUND": "C=CC(=O)Nc1cc(OCCN(CC)CC)ccc1Nc1cc(-c2cccnc2Nc2c(Cl)c(OC)cc(OC)c2Cl)ncn1 [Compound 15]", "TEST_VALUE": "≤ 6.00"}
